Attribution: patent US10695396B2

# maps each entry to its pKd
Molecular target: Anxa1 (Homo sapiens)
Construct: human recombinant Anxa1 protein consisting of 346 amino acid residues; purchased ATGen Corporation (Seongnam-si, South Korea)
Sequence (P04083 1-346): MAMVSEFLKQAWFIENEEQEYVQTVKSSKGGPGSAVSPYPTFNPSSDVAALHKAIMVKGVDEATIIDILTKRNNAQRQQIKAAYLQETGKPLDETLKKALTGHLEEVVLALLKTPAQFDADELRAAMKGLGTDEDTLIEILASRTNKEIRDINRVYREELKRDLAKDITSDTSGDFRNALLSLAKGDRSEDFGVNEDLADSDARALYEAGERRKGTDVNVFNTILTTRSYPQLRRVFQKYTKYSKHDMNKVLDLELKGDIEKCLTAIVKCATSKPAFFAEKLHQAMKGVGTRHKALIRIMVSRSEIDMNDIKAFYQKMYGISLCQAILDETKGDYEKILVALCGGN
Assay: intermolecular interaction with Anxa1 measured by the QCM method
Assay type: binding
Details: QCM, peptide-bound sensor chip, various doses of Anxa1; read-out: kd value
Square brackets hold non-standard residues; d marks the D form. Peptide text beside a SMILES is read from it.
Kindly note that pKd refers to -log10 of the concentration in mol/L and answer with the value alone.

Example entries begin here.
>>> value_reported("CSCC[C@@H](N)C(=O)N1CCC[C@@H]1C(=O)N[C@@H](C(=O)N[C@H](CC(C)C)C(=O)N[C@@H](C(=O)N[C@H](Cc1ccccc1)C(=O)N[C@H](CCCNC(=N)N)C(=O)O)[C@H](C)O)[C@H](C)O [dMPT7, M[D] P[D] T[D] L[D] T[D] F[D] R[D]] (H-[dM][dP][dT][dL][dT][dF][dR]-OH; N-terminus and C-terminus assumed)")
6.53
>>> value_reported("CC(C)C[C@@H](NC(=O)[C@@H](CC(C)C)NC(=O)[C@@H](CO)NC(=O)[C@H](NC(=O)[C@H]1CCCN1C(=O)[C@H](N)CO)[C@H](C)O)C(=O)N[C@H](Cc1ccccc1)C(=O)O [dSPT7, S[D] P[D] T[D] S[D] L[D] L[D] F[D]] (H-[dS][dP][dT][dS][dL][dL][dF]-OH; N-terminus and C-terminus assumed)")
7.04
>>> value_reported("CC(C)C[C@@H](N)C(=O)N[C@H](CC(C)C)C(=O)N[C@H](CO)C(=O)N[C@H](Cc1c[nH]c2ccccc12)C(=O)N1CCC[C@@H]1C(=O)N[C@H](CO)C(=O)N[C@H](C)C(=O)O [dLLS7, L[D] L[D] S[D] W[D] P[D] S[D] A[D]] (H-[dL][dL][dS][dW][dP][dS][dA]-OH; N-terminus and C-terminus assumed)")
7.27

# pKd of CC(C)C[C@@H](N)C(=O)N[C@H](CCCNC(=N)N)C(=O)N[C@H](Cc1ccccc1)C(=O)N1CCC[C@@H]1C(=O)N[C@@H](C(=O)N[C@@H](C(=O)N[C@H](CC(C)C)C(=O)O)C(C)C)[C@H](C)O [dLRF7, L[D] R[D] F[D] P[D] T[D] V[D] L[D]] (H-[dL][dR][dF][dP][dT][dV][dL]-OH; N-terminus and C-terminus assumed) = 7.51
